Target: IDO (IFNγ-treated Hela cells) (Homo sapiens, UniProt P14902)
Construct: endogenous in cells; host or cells: Hela cells treated with IFNγ (10 ng/ml)
Sequence (P14902 whole entry): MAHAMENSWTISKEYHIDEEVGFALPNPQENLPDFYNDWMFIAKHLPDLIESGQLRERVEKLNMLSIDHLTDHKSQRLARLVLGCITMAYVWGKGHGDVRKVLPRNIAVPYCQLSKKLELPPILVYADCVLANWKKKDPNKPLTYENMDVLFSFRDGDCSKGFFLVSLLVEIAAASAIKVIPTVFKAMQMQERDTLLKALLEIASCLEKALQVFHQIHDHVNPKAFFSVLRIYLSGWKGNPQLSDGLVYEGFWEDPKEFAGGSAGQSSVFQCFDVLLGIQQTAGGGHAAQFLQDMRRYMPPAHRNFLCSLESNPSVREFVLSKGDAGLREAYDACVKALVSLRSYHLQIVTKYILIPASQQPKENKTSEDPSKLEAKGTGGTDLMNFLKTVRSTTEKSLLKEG
Assay: IDO Kynurenine Assay with Hela Cells
Type: cell-based
Details: IFNγ 10 ng/ml, 20 hours incubation, kynurenine absorbance at 490 nm, read-out: Hela Cells LLE_IDO_ABS_DR (IC50)
PROPERTY: IC50 (nM)

Look over these answered cases.
>>> print(df.to_string())
                                test_smiles                     target_or_test_system  readout_unit  reported
0  COc1ccc(CC(=O)Nc2cc(-c3ccccc3-c3nnn[nH]3)ccc2N(CC(C)C)CC(C)C)c(C(F)(F)F)c1  IDO (IFNγ-treated Hela cells) (Homo sapiens, UniProt P14902)            nM        40
1  CC(C)CN(CC(C)C)c1ccc(-c2ccccc2-c2nnn[nH]2)cc1NC(=O)Oc1ccc2c(c1)OCO2  IDO (IFNγ-treated Hela cells) (Homo sapiens, UniProt P14902)            nM      3910

P = CC(C)CN(CC(C)C)c1ccc(-c2ccccc2-c2nnn[nH]2)cc1NC(=O)Cc1ccccc1C(F)(F)F
Q = CC(C)CN(CC(C)C)c1ccc(-c2ccccc2-c2nnn[nH]2)cc1NC(=O)CC#N
## Task // compare measured IC50 between P and Q ; output the lower one When you have decided, please share the label of that item.
## Result P
(P: 50 nM, Q: 280 nM)

* * *

Biological target: IDO (IFNγ-treated Hela cells) (Homo sapiens, UniProt P14902)
Construct: endogenous in cells
Test: IDO Kynurenine Assay with Hela Cells
Conditions: IFNγ 10 ng/ml, 20 hours incubation, kynurenine absorbance at 490 nm, read-out: Hela Cells LLE_IDO_ABS_DR (IC50)
PROPERTY: IC50 (nM)
The answer is to be given in nM; state only the numeric part.

In [3]: df
Out[3]:
                                test_smiles                     target_or_test_system  readout_unit  reported
0  CCCCN(c1ccc(-c2ccccc2-c2nnn[nH]2)cc1NC(=O)Cc1ccccc1F)C1CCCCC1  IDO (IFNγ-treated Hela cells) (Homo sapiens, UniProt P14902)            nM      7.09

## Task Please respond with reported IC50 (system IDO (IFNγ-treated Hela cells) (Homo sapiens, UniProt P14902)) for "Cc1ccc(CC(=O)Nc2cc(-c3ccccc3-c3nnn[nH]3)ccc2-n2cccn2)cc1" .
## Result 230

## Task Please respond with reported IC50 (system IDO (IFNγ-treated Hela cells) (Homo sapiens, UniProt P14902)) for "COc1ccc(OC(=O)Nc2cc(-c3ccccc3-c3nnn[nH]3)ccc2N(CC(C)C)CC(C)C)cc1F" .
## Result 6560
